Data provenance: ChEMBL document CHEMBL4513216

- System: Plasmodium berghei
- MEASUREMENT_NOTES: Screen against P. berghei liver stage (PbLuc), transformed with Luciferase, at 2uM
- Assay type: functional, HepG2
- CONDITION_NOTES: tested at 2 uM
Among all 68,000 compounds or so, about 2,700 (4%) showed an effect of 50% or more. The entries come from a sample that favours strong results as a whole.

MOLECULE: CN1CCN(c2ccc(F)cc2NC(=O)NCC[S+](C)[O-])CC1 (stereo not drawn)
INHIBITION: 17.98%
//
MOLECULE: CCNc1ncc(C(=O)NCCc2csc(CSC)n2)cn1
INHIBITION: -45.11%
//
MOLECULE: Cc1cc(CCC2CN(Cc3ccccc3C(=O)O)CCO2)ncn1 (stereo not drawn)
INHIBITION: 0.3%
//
MOLECULE: CN(C)C1CCN(C(=O)NCc2ccc(Cn3cncn3)cc2)CC1
INHIBITION: -8.87%
//
MOLECULE: CCNC(=O)[C@@H]1C[C@@H](NC(=O)CSC)CN1Cc1ccncc1
INHIBITION: 16.05%
//
MOLECULE: COc1ccccc1CN1C[C@@H](F)[C@@H](OCc2nc3cnccc3[nH]2)C1
INHIBITION: 14.89%
//
MOLECULE: CNC(=O)[C@@]12CCO[C@@H]1CCN(Cc1ccc3c(c1)OCO3)C2
INHIBITION: 39.02%
//
MOLECULE: CC(C)C(O)CCNC(=O)Nc1cc(F)ccc1-n1cccn1 (stereo not drawn)
INHIBITION: 37.43%
//
MOLECULE: NCC1[C@H]2CN(CCc3ccccc3)C[C@@H]12 (stereo partly drawn)
INHIBITION: -7.41%
//
MOLECULE: CC(NC(=O)Cn1cccn1)c1ccc2c(c1)OCCCO2 (stereo not drawn)
INHIBITION: 51.21%
//
MOLECULE: CCC1c2ccccc2CCN1C(=O)c1ccnc(C(=O)OC)c1 (stereo not drawn)
INHIBITION: 20.34%
//
MOLECULE: CCNc1ncc(C(=O)NCCc2csc(-c3ncccn3)n2)cn1
INHIBITION: 69.79%
//
MOLECULE: Cn1cc(CN2CCOC(c3nccnc3-c3cccc(F)c3)C2)cn1 (stereo not drawn)
INHIBITION: 11.74%
//
MOLECULE: COc1ccccc1CC(=O)N1CCC(NCc2cccnc2)CC1
INHIBITION: -135.87%
//
MOLECULE: c1cnc2nc(N3CCCC3c3nnc4n3CCCCC4)ccc2n1 (stereo not drawn)
INHIBITION: 2.06%
//
MOLECULE: Cn1nccc1CCC(=O)N1CCC(c2cnccn2)CC1
INHIBITION: -14.13%
//
MOLECULE: COc1ccc(NC(=O)CN2CCCCC2C2OCCO2)cc1 (stereo not drawn)
INHIBITION: -13.68%
//
MOLECULE: COc1ccccc1CN1C[C@@H](F)[C@@H](OCc2nc3ccccc3[nH]2)C1
INHIBITION: -6.21%
//
MOLECULE: Cc1cc(C(=O)NCc2c(C)nn(C)c2C)nc(N2CCCC2)n1
INHIBITION: -70.38%
//
MOLECULE: Cc1nc(CNC(=O)NC(C)c2ccc3c(c2)OCCO3)cs1 (stereo not drawn)
INHIBITION: 21.69%
//
MOLECULE: CN(C)C(=O)CO[C@H]1CO[C@@]2(CCN(Cc3ccsc3)C2)C1
INHIBITION: -9.99%
//
MOLECULE: C[S+]([O-])CCNC(=O)Nc1cc(F)ccc1-n1cccn1 (stereo not drawn)
INHIBITION: 58.14%
//
MOLECULE: CNC(=O)[C@H]1C[C@H]2CN(C(=O)Nc3ccccc3)C[C@@H]1O2
INHIBITION: 7.35%
//
MOLECULE: CN(Cc1cccnc1)CC1CCCN1c1cccnn1 (stereo not drawn)
INHIBITION: 33.31%
//
MOLECULE: CCN(Cc1ccncc1)C1CCCN(C/C=C/c2ccc(F)cc2)C1 (stereo not drawn)
INHIBITION: 27.95%
//
MOLECULE: CN(C)c1nccc(C2CCCN(C(=O)CO)C2)n1 (stereo not drawn)
INHIBITION: 1.13%
//
MOLECULE: CC(NC(=O)CCn1cccn1)c1ccc2c(c1)OCCO2 (stereo not drawn)
INHIBITION: -17.31%
//
MOLECULE: O=C(NC1CC1)[C@@]12CCO[C@@H]1CCN(Cc1ccc3c(c1)OCO3)C2
INHIBITION: -14.64%
//
MOLECULE: CNCC1CCC(c2cc(CN(C)C(=O)c3cnccn3)n(C)n2)CC1 (stereo not drawn)
INHIBITION: 24.98%
//
MOLECULE: Cc1cc(C(=O)NCc2c(C)nn(C)c2C)nc(N2CCOCC2)n1
INHIBITION: -68.8%
//
MOLECULE: CCC(=O)N1CCCC1c1nccnc1Nc1nc(C)cc(C)n1 (stereo not drawn)
INHIBITION: 44.72%
//
MOLECULE: NCC1[C@H]2CN(Cc3ccccc3)C[C@@H]12 (stereo partly drawn)
INHIBITION: 55.7%
//
MOLECULE: CC(C)NC(=O)C1CCc2nnc(CNC(=O)c3cccnc3)n21 (stereo not drawn)
INHIBITION: 37.62%

###

Each entry below carries its reported INHIBITION.
- System: Plasmodium berghei
- MEASUREMENT_NOTES: Screen against P. berghei liver stage (PbLuc), transformed with Luciferase, at 2uM
- Format: functional, HepG2
- CONDITION_NOTES: tested at 2 uM
Screen size: about 68,000 compounds; about 2,700 (4%) showed an effect of 50% or more. This is one part of a sample in which strong results are shown more often than they occur.

COMPOUND: Cc1nc(C)n(CC2CCCCN2CC(=O)Nc2ccncc2)n1 (centres undefined)
EXPERIMENTAL_SYSTEM: Plasmodium berghei
INHIBITION: 51.21%

COMPOUND: Cc1cnc2c(c1NCc1cccnc1)c(=O)n(C)c(=O)n2C
EXPERIMENTAL_SYSTEM: Plasmodium berghei
INHIBITION: 63.23%

COMPOUND: CCc1nnc(C2Cc3ccccc3CN2Cc2cc(C)no2)o1 (centres undefined)
EXPERIMENTAL_SYSTEM: Plasmodium berghei
INHIBITION: 56.89%

COMPOUND: Cc1nc(C)n(CC2CCCCN2CC(=O)Nc2cc(C)on2)n1 (centres undefined)
EXPERIMENTAL_SYSTEM: Plasmodium berghei
INHIBITION: 64.16%

COMPOUND: Cc1nc(C)n(CC2CCCCN2CC(=O)NC2CCOCC2)n1 (centres undefined)
EXPERIMENTAL_SYSTEM: Plasmodium berghei
INHIBITION: 60.31%

COMPOUND: Fc1cccc2ncnc(NCCCc3ccncc3)c12
EXPERIMENTAL_SYSTEM: Plasmodium berghei
INHIBITION: 54.3%

COMPOUND: COc1cc(N2CCOC(c3ccc(F)cc3)C2)ncn1 (centres undefined)
EXPERIMENTAL_SYSTEM: Plasmodium berghei
INHIBITION: 19.27%

COMPOUND: O=C(c1ccccc1)N1CCOC2(CCN(Cc3cccs3)CC2)C1
EXPERIMENTAL_SYSTEM: Plasmodium berghei
INHIBITION: 20.51%

COMPOUND: COc1ccc(CCNCc2c(C)nn(C)c2N(C)C)cc1OC
EXPERIMENTAL_SYSTEM: Plasmodium berghei
INHIBITION: 7.74%

###

- Test system: Plasmodium berghei
- MEASUREMENT_NOTES: Screen against P. berghei liver stage (PbLuc), transformed with Luciferase, at 2uM
- Assay type: functional, HepG2
- CONDITION_NOTES: tested at 2 uM
About 2,700 (4%) of roughly 68,000 compounds showed an effect of 50% or more. This is one part of a sample in which strong results are shown more often than they occur.

COMPOUND: Cc1cnn(CC2CCCCN2CC(=O)Nc2nc(C)cs2)c1 (centres undefined)
INHIBITION, %: 67.69
//
COMPOUND: Cc1nc2cc(O)nn2c(C)c1CCC(=O)N(C)Cc1ccccc1
INHIBITION, %: 37.41
//
COMPOUND: CC(C)COC(C)C(=O)N1CCCCC1 (centres undefined)
INHIBITION, %: 30.68
//
COMPOUND: COCC(O)CN(C)c1ccnc2ccc(Cl)cc12 (centres undefined)
INHIBITION, %: -33.34
//
COMPOUND: CC(C)OCCN1CCN(C(=O)c2cccc(CC#N)c2)CC1
INHIBITION, %: 5.72
//
COMPOUND: Cc1ncsc1CNC(=O)N1CCN(Cc2ccccc2)C[C@H]1C
INHIBITION, %: 37.41
//
COMPOUND: CCC[C@@H]1CN(Cc2ccccc2-c2ccco2)C[C@H]1NC(C)=O
INHIBITION, %: 28.19
//
COMPOUND: C[C@@H]1CN(c2nc3c(cc2C(N)=O)CCC3)CC[C@@]1(O)C1CCC1
INHIBITION, %: 2.79
//
COMPOUND: Cc1nccc(CNC(=O)N2CCN(Cc3ccccc3)C[C@H]2C)n1
INHIBITION, %: 58.93
//
COMPOUND: O=C(CN1CCCc2sccc2C1=O)NC1CCc2nccn2C1 (centres undefined)
INHIBITION, %: -4.89
//
COMPOUND: COCCNS(=O)(=O)c1ccc(Cl)c(C(=O)N(C)Cc2ccsc2)c1
INHIBITION, %: 13.76
//
COMPOUND: Cc1ccc2oc(SCC(N)=O)nc2n1
INHIBITION, %: -30.1
//
COMPOUND: CCCn1nc2c(cc1=O)CN(Cc1nc(C)c(C)o1)CC2
INHIBITION, %: 44.43
//
COMPOUND: CCCc1nc(CN(CC)Cc2ccc(S(C)(=O)=O)cc2)no1
INHIBITION, %: -5.31
//
COMPOUND: CC(C)COC(C)C(=O)N1CCCC1 (centres undefined)
INHIBITION, %: 52.6
//
COMPOUND: CCCn1nccc1NC(=O)CN1CCCC1Cn1cccn1 (centres undefined)
INHIBITION, %: 33.9
//
COMPOUND: CC(C)N1CCC(CC(=O)N(C)C(C)c2cncs2)CC1 (centres undefined)
INHIBITION, %: 17.73
//
COMPOUND: CC[C@@H]1N(Cc2ccco2)CCC[C@]12CCC(=O)N2C
INHIBITION, %: 53.46
//
COMPOUND: C[C@@H]1CN(Cc2ccccc2)CCN1C(=O)NCc1nccs1
INHIBITION, %: 14.83
